assay_text: NCI Yeast Anticancer Drug Screen. Data for the sgs1 mgt1 strain (AID 161);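 further: 0% = growth of cultures given vehicle only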
test_parameters: S. cerevisiae sgs1 mgt1 strain, at 50.0 µM
The panel holds about 79,000 compounds, 15% with a hit somewhere; the sample as a whole holds those more often. Active and inactive are the calls of the source. No stated cut-off is given here; in the data, active means growth inhibition above about 70%; inactive means the rest.
Choose the fitting class; nothing outside 1 for active, 0 for inactive is accepted.

Previously resolved entries follow.
CC(=O)N(C1=CC(=O)c2ccccc2C1=O)c1ccc(C)cc1: 1
Cc1cccc2c(Nc3ccc(NS(C)(=O)=O)cc3)c3ccccc3nc12: 0
CCN(CC)CCSCCCNc1cc(C)nc2c1ccc1c2ccc2c(NCCCSCCN(CC)CC)cc(C)nc21: 1
O=[N+]([O-])CCc1ccco1: 0
C=C1CC(C)(C)C(c2ccccc2)OC1=O (stereo not drawn): 1
Cc1cccc2c1C1c3c(C)cccc3C(O)CC1CC2O (stereo not drawn): 0
CN(C)C(=S)/N=c1\ss/c(=N\C(=S)N(C)C)n1-c1ccc(Cl)cc1: 1
Cc1ccc(O)c(C(C)(C)c2ccccc2)c1: 1
CC(C)CCOC(=O)Nc1cccc(Cl)c1: 0
Cc1ccc(NCCN(C)C)c2c(=O)c3ccc(O)cc3sc12: 1

Prompt: What did the test return for CC12CCC(=O)C=C1C=CC1C2CCC2(C)C1CCC21CCC(=O)O1 (stereo not drawn) ?
Response: 1

Prompt: What did the test return for CCCCCCCCCCC[N+]1(Cc2ccccc2)CC2CCN(Cc3ccccc3)CC2C1 (stereo not drawn) ?
Response: 1

Prompt: What did the test return for CCc1ccccc1SC(C)=O ?
Response: 0

Prompt: What did the test return for COc1ccc(/C(C#N)=C(/N)SCc2ccccc2Cl)cc1 ?
Response: 1

Prompt: What did the test return for CS/C(=N\C(=S)N(C)C)N(c1ccccc1)c1nc(=[N+](C)C)ss1 ?
Response: 1

Prompt: What did the test return for CC1(CCC(=O)O)c2ccc3ccccc3c2Oc2c1ccc1ccccc21 ?
Response: 1

Prompt: What did the test return for Cc1nn(C(=O)c2ccccc2O)c2c1C(c1ccc3ccccc3c1O)SC(N)=N2 (stereo not drawn) ?
Response: 1

Prompt: What did the test return for O=C(COC(=O)C(c1ccccc1)c1ccccc1)c1ccc(Br)cc1 ?
Response: 0

Prompt: What did the test return for CCOc1ccccc1C(=O)OCc1ccccc1 ?
Response: 0

Prompt: What did the test return for Cc1cc(Br)c(NC(=O)CBr)cc1C ?
Response: 1

Prompt: What did the test return for O=C(O)C1C(c2ccccc2)=C1c1ccccc1 ?
Response: 0

Prompt: What did the test return for Cc1cccc(C[N+](C)(C)CCCO)c1C ?
Response: 0

Prompt: What did the test return for C/C(=N\NC(=S)N1CCN(C2CCCCCC2)CC1)c1ccccn1 ?
Response: 0

----------
assay_text: NCI Yeast Anticancer Drug Screen. Data for the rad50 strain (AID 155);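 further: 0% = growth of vehicle-only cultures of the same strain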
test_parameters: S. cerevisiae rad50 strain growth inhibition; at 50.0 µM; active compounds read high
Compounds without any hit were thinned out: in the full panel of roughly 79,000, 15% have a hit.
Would you mind telling me the reported growth inhibition of each entry?
Give bare numbers, in %.

CCC(C)C(C(=O)NOC(=O)c1ccccc1)/C(N)=N/OC(=O)c1ccccc1 (stereo not drawn): 99.5
COc1ccc(C2C3CCCC(C3=O)C(c3ccc(OC)cc3)N2N=O)cc1 (stereo not drawn): 84

Items follow; give growth inhibition for each.
1. C[C@H](CCC1=NCCN1)[C@H]1CC[C@H]2[C@@H]3[C@H](O)C[C@@H]4C[C@H](O)CC[C@]4(C)[C@H]3CC[C@]12C
2. Cc1cccc(C)c1O
3. COc1ccc(/C(Cl)=C(\c2ccc(OCCN(C)C)cc2)c2ccc(OC(=O)C(C)(C)C)cc2)cc1
4. CCOC(=O)OCCSCCOC(=O)OCC

Response:
1: 91.5; 2: 99; 3: 91.8; 4: -4.35

----------
assay_text: NCI Yeast Anticancer Drug Screen. Data for the sgs1 mgt1 strain (AID 161);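 further: 0% = growth of cultures given vehicle only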
test_parameters: S. cerevisiae sgs1 mgt1 strain, at 5.0 µM (retest, dose inferred, filed as 0.5), active compounds read high
This is part of a sample that, as a whole, favours compounds with a hit. Of some 79,000 tested, about 15% had one in any assay. The source made the active and inactive calls. Cut-off read from the data, not from the text of the source: active = growth inhibition above about 70%; inactive = the rest.
Would you mind telling me the reported growth inhibition of each entry?

O=C1c2cc([N+](=O)[O-])cc3cc([N+](=O)[O-])cc(c23)C(=O)N1CCCNCCNCCCN1C(=O)c2cc([N+](=O)[O-])cc3cc([N+](=O)[O-])cc(c23)C1=O: 93% (active)
C1=C(c2ccccc2)SC=C(c2ccccc2)S1: -2% (inactive)
CCCCCCCCCCCC(=O)OC/C=C/COC(=O)c1ccccc1: 1% (inactive)
O=C(N/C(=C\c1cccc([N+](=O)[O-])c1)c1nc2ccccc2s1)c1ccccc1: 55% (inactive)
O/N=C1/CCCC/C1=C\c1ccc(Cl)c(Cl)c1: 28% (inactive)

Items follow; give growth inhibition for each.
1. S=c1[nH]c2cc(Cl)ccc2s1.[Zn+2]
2. C=CC(=O)c1ccc2c(c1)OCCOCCOCCOCCOCCO2
3. CCN(CC)CCCOC(=O)C(c1ccccc1)C1CCCCC1 (stereo not drawn)
4. C/C(=N/NC(=S)N1CCCCC1)c1cccc(/C(C)=N\NC(=S)N2CCCCC2)n1
5. c1ccc([P+](c2ccccc2)(c2ccccc2)C2CCCCO2)cc1 (stereo not drawn)

Response:
1: 3% (inactive); 2: -13% (inactive); 3: 22% (inactive); 4: 6% (inactive); 5: 4% (inactive)

Items follow; give growth inhibition for each.
1. Cc1ccc(Nc2nc(C)c(C(/C=C/c3ccc4c(c3)OCO4)=N/Nc3ccc([N+](=O)[O-])cc3[N+](=O)[O-])s2)c([N+](=O)[O-])c1
2. CC(=O)C(C(=N)C#N)C(=O)Nc1ccccc1 (stereo not drawn)

Response:
1. 37% (inactive)
2. -8% (inactive)

Items follow; give growth inhibition for each.
1. Nc1ccccc1SC(/C=C/NNC1=NC(c2ccccc2)C(c2ccccc2)=NN1)c1ccccc1 (stereo not drawn)
2. CCOc1ccccc1/C=N/Nc1nnc(N/N=C/c2ccccc2OCC)c2ccccc12
3. Cc1ccnc2ccc3ccccc3c12
4. CCCCCCCn1ccnc1NCCCCCCCCCCNc1nccn1CCCCCCC
5. CCCCCCCC(=O)O[C@H]1[C@H]2[C@@H](CC1(C)C)C(=O)[C@]13O[C@H]1C(=O)[C@]1(CO1)[C@]23C
6. O=c1c(-c2ccccc2)c(-c2ccccc2)c1=O
7. CC(CO)CCC(=O)C(C)C1C(=O)CC2CC3CC(O)CCC3(C)CC21C (stereo not drawn)
8. O=C1C=CC(=O)N1c1ccc(-c2ccc(N3C(=O)C=CC3=O)cc2)cc1

Response:
1. 19% (inactive)
2. -24% (inactive)
3. -63% (inactive)
4. -6% (inactive)
5. 65% (inactive)
6. -36% (inactive)
7. 2% (inactive)
8. 60% (inactive)

Items follow; give growth inhibition for each.
1. CC(=O)SCC(=O)Nc1ccc(Cl)cc1
2. O=C1COCC(=O)OCCOCCSCCOCCO1
3. COc1ccc(Oc2ccc(C(=O)C(CN(C)C)CN(C)C)cc2)cc1

Response:
1. -4% (inactive)
2. 1% (inactive)
3. 11% (inactive)

----------
assay_text: NCI Yeast Anticancer Drug Screen. Data for the sgs1 mgt1 strain (AID 161);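 further: 0% = growth of cultures given vehicle only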
test_parameters: S. cerevisiae sgs1 mgt1 strain, at 5.0 µM (retest, dose inferred, filed as 0.5), active compounds read high
Compounds without any hit were thinned out: in the full panel of roughly 79,000, 15% have a hit.
observation_type: growth inhibition (%)
Give bare numbers, in %.

Use these answered entries as a reference point.
O=C1CSC(c2c[nH]c3ccccc23)N1c1cccc(Cl)c1 (centres undefined): 16
COc1ccc(/C(Cl)=C(\c2ccc(OCCN(C)C)cc2)c2ccc(OC(=O)C(C)(C)C)cc2)cc1: 18
Nc1c(-c2ccc(C3=NCCN3)cc2)[nH]c2cc(C3=NCCN3)ccc12: 14
C[n+]1c(/C=C/c2ccccc2Cl)ccc2ccccc21: -8
CCN(C(C)=O)c1ccc2c(c1)Cc1ccccc1-2: 5
N#CC(NNC(=O)c1ccccc1O)c1c(O)ccc2ccccc12 (centres undefined): -5
CC(=O)OC1=CC2(OC(C)=O)CC(C)(C)C1C1C(=O)C=CC(=O)C12 (centres undefined): 0
Cc1cccc(NC(=S)N/N=C(/c2ccccc2)c2ccccn2)c1: -35

Could you now consider this next molecule?
Prompt: Requested field: growth inhibition. Item: C(=C\[n+]1ccc2ccccc2c1)/c1ccccc1
Response: -4

----------
assay_text: NCI Yeast Anticancer Drug Screen. Data for the mlh1 rad18 strain (AID 175)
test_parameters: S. cerevisiae mlh1 rad18 strain growth inhibition; at 5.0 µM (retest, dose inferred, filed as 0.5)
Method: Growth inhibition of yeast strains with defined genetic alterations is measured as a screen for potential anti-cancer activity. Selected strains with alterations in DNA damage repair or cell cycle control were exposed to compounds and growth inhibition was measured relative to vehicle treated controls. The strain used in this assay is mlh1 rad18
About 79,000 compounds went through this panel and 15% of them were active in at least one assay; those are over-represented in the sample as a whole. Activity calls are given as the source filed them. Rule as the data show it: active = growth inhibition above about 70%; inactive = the rest.
Choose the fitting class; nothing outside 1 (yes) = active, 0 (no) = inactive is accepted.

Prompt: What did the test return for Cc1ccccc1N=Nc1c(C)nn(C(N)=S)c1-c1ccccc1 ?
Response: 0 (no)

Prompt: What did the test return for CCCCCCCCCCC(NC(C)=O)(C(=O)OCC)C(=O)OCC ?
Response: 0 (no)

Prompt: What did the test return for O=C(NC1CCN(Cc2ccccc2)CC1)c1ccc(I)cc1 ?
Response: 0 (no)

Prompt: What did the test return for CC(=O)c1sc(Nc2ccc(Cl)c(Cl)c2)nc1C ?
Response: 0 (no)

Prompt: What did the test return for Nc1nc(Cc2ccccc2)nc(Cc2ccccc2)c1-c1ccccc1 ?
Response: 0 (no)

Prompt: What did the test return for COc1ccc(Oc2ccc(C(=O)C(CN(C)C)CN(C)C)cc2)cc1 ?
Response: 0 (no)

Prompt: What did the test return for O=C(Nc1ccccc1)OCCN=C1c2ccccc2CCc2ccccc21 ?
Response: 0 (no)

Prompt: What did the test return for CCc1c(C)[nH]c(-c2csc(N)n2)c1C ?
Response: 0 (no)

Prompt: What did the test return for CC(=O)Oc1ccc(/C=C2\N=C(c3ccccc3)OC2=O)c(OC(C)=O)c1 ?
Response: 0 (no)

Prompt: What did the test return for COc1ccc(/C=C/C(C)=N/NC(=S)NCC(C)C)cc1 ?
Response: 0 (no)

Prompt: What did the test return for COc1ccc2c(c1)O[C@H]1c3ccc(O)cc3OC[C@@H]21 ?
Response: 0 (no)

Prompt: What did the test return for C=COCCN1CCN(CCCN2c3ccccc3Sc3ccc(C(F)(F)F)cc32)CC1 ?
Response: 0 (no)

Prompt: What did the test return for Cc1cc(NCCCCCCCCNc2cc(C)nc3cc(N(C)C)ccc23)c2ccc(N(C)C)cc2n1 ?
Response: 0 (no)
